FYI, the data here is from ChEMBL document CHEMBL3885881.

species on record: Rattus norvegicus; assay: DrugMatrix - Regimen: Daily Repeat; type: toxicity, organism-based, Sprague-Dawley; design: regimen Daily Repeat, gender Male, age 6-8 weeks; settings: in vivo, ip, 40 mg/kg, […], tissue Blood, route intraperitoneal, dose level High, time 28 day, vehicle 100 % SALINE
Property: ABSOLUTE LYMPHOCYTE (cells/µL)
Your answer is read as cells/µL, so omit the unit and give the number.

Lab book: ABSOLUTE LYMPHOCYTE of `CCN[C@@H]1C[C@H](N)[C@@H](O[C@H]2OC(CN)=CC[C@H]2N)[C@H](O)[C@H]1O[C@H]1OC[C@](C)(O)[C@H](NC)[C@H]1O` noted as 11000

###

species: Rattus norvegicus; assay: DrugMatrix - Regimen: Daily Repeat; format: toxicity, organism-based, Sprague-Dawley; parameters: regimen Daily Repeat, gender Male, age 6-8 weeks; settings: in vivo, po, 0 mg/kg, 120 h, tissue Blood, route oral GAVAGE, dose level Control, time 5 day, […]
Readings of ABSOLUTE SEGMENTED NEUTROPHIL for the listed compounds
Your answer is read as CELLS/uL, so omit the unit and give the number.

// known answers, use as guide
Compound	ABSOLUTE SEGMENTED NEUTROPHIL, CELLS/uL
CC(=O)Nc1ccc(O)cc1 [ACETAMINOPHEN]	1111.83
C[C@H]1O[C@@H](O[C@H]2[C@@H](O)C[C@H](O[C@H]3[C@@H](O)C[C@H](O[C@H]4CC[C@@]5(C)[C@H](CC[C@@H]6[C@@H]5CC[C@]5(C)[C@@H](C7=CC(=O)OC7)CC[C@]65O)C4)O[C@@H]3C)O[C@@H]2C)C[C@H](O)[C@@H]1O [DIGITOXIN]	614
C[C@]12CC[C@@H]3c4ccc(O)cc4CC[C@H]3[C@@H]1CC[C@@H]2O [ESTRADIOL]	527

// moving on: another record for ABSOLUTE SEGMENTED NEUTROPHIL
Lab book: ABSOLUTE SEGMENTED NEUTROPHIL of CC(=O)Nc1cccc(O)c1 [METACETAMOL] noted as 2551.33

###

species: Rattus norvegicus; test: DrugMatrix - Regimen: Daily Repeat; type: toxicity, organism-based, Sprague-Dawley; parameters: regimen Daily Repeat, gender Male, age 6-8 weeks; settings: in vivo, ip, 0 mg/kg, 120 h, tissue Blood, route intraperitoneal, dose level Control, time 5 day, vehicle 100 % SALINE
Property: ABSOLUTE SEGMENTED NEUTROPHIL (cells/µL)
Your answer is read as cells/µL, so omit the unit and give the number.

Lab book: ABSOLUTE SEGMENTED NEUTROPHIL of CADMIUM DICHLORIDE noted as 1170

###

species: Rattus norvegicus; experiment: DrugMatrix - Regimen: Daily Repeat; assay type: toxicity, organism-based, Sprague-Dawley; set-up: regimen Daily Repeat, gender Male, age 6-8 weeks; conditions: in vivo, po, 0 mg/kg, 72 h, tissue Blood, route oral GAVAGE, dose level Control, time 3 day, […]
Label scheme for NEUTROPHIL: Low: < 9%; Mid: ≥ 9% and < 10%; High: ≥ 10%

Here's what some known entries look like.
Compound	Group Label
CC(=O)Nc1cccc(O)c1	High
CC(C)(Oc1ccc(C2CCCc3ccccc32)cc1)C(=O)O (stereo unspecified)	High

Input line: // bin(item) where item = `CC/C(=C(/CC)c1ccc(O)cc1)c1ccc(O)cc1`
Output line: Low

Input line: // bin(item) where item = S=C=Nc1cccc2ccccc12 [1-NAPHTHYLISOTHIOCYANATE]
Output line: Low

Input line: // bin(item) where item = CCOC(=O)C1=C(C)NC(C)=C(C(=O)OC)C1c1cccc([N+](=O)[O-])c1 (stereo unspecified)
Output line: Low

Input line: // bin(item) where item = `O=C(O)Cc1ccccc1Nc1c(Cl)cccc1Cl`
Output line: Mid

Input line: // bin(item) where item = `Clc1ccc(Cl)cc1`
Output line: High

Input line: // bin(item) where item = `C[C@]12CC[C@@H]3c4ccc(O)cc4CC[C@H]3[C@@H]1CC[C@@H]2O`
Output line: Mid

###

organism: Rattus norvegicus; assay: DrugMatrix - Regimen: Daily Repeat; type: toxicity, organism-based, Sprague-Dawley; parameters: regimen Daily Repeat, gender Male, age 6-8 weeks; details: in vivo, po, 0 mg/kg, 72 h, tissue Blood, route oral GAVAGE, dose level Control, time 3 day, vehicle 100 % WATER
Property: ERYTHROCYTE COUNT (x10E6/uL)
Your answer is read as x10E6/uL, so omit the unit and give the number.

// known answers, use as guide
Compound	ERYTHROCYTE COUNT [x10E6/uL]
CC(C)NCC(O)COc1cccc2ccccc12 (stereo not given)	5.17
Nc1ccn([C@@H]2CS[C@H](CO)O2)c(=O)n1	5.49
Cc1ncc([N+](=O)[O-])n1CCO	5.57
C[N+](C)(C)CCO.[Cl-] [CHOLINE CHLORIDE]	5.16

// moving on: another record for ERYTHROCYTE COUNT
Lab book: ERYTHROCYTE COUNT of C[C@@H]1C[C@@H]([C@H](O)CC2CC(=O)NC(=O)C2)C(=O)[C@@H](C)C1 [CYCLOHEXIMIDE] noted as 5.85

###

species: Rattus norvegicus; assay: DrugMatrix - Regimen: Daily Repeat; assay type: toxicity, organism-based, Sprague-Dawley; set-up: regimen Daily Repeat, gender Male, age 6-8 weeks; settings: in vivo, po, 0 mg/kg, 120 h, tissue Blood, route oral GAVAGE, dose level Control, time 5 day, […]
Readings of NUCLEATED RED BLOOD CELLS for the listed compounds

// known answers, use as guide
Compound	Value
COCCOC(=O)C1=C(C)NC(C)=C(C(=O)OC(C)C)C1c1cccc([N+](=O)[O-])c1 (stereo not drawn)	0.17 /100WBC
C[C@H]1O[C@@H](O[C@H]2[C@@H](O)C[C@H](O[C@H]3[C@@H](O)C[C@H](O[C@H]4CC[C@@]5(C)[C@H](CC[C@@H]6[C@@H]5CC[C@]5(C)[C@@H](C7=CC(=O)OC7)CC[C@]65O)C4)O[C@@H]3C)O[C@@H]2C)C[C@H](O)[C@@H]1O	0 /100WBC

// moving on: another record for NUCLEATED RED BLOOD CELLS
Lab book: NUCLEATED RED BLOOD CELLS of CCOC(=O)C1=C(C)NC(C)=C(C(=O)OC)C1c1cccc([N+](=O)[O-])c1 (stereo not drawn) noted as 0.17 /100WBC

###

Readings of ABSOLUTE MONOCYTE for the listed molecules
organism: Rattus norvegicus; experiment: DrugMatrix - Regimen: Daily Repeat; assay type: toxicity, organism-based, Sprague-Dawley; set-up: regimen Daily Repeat, gender Male, age 6-8 weeks; settings: in vivo, po, 10 mg/kg, 120 h, tissue Blood, route oral GAVAGE, dose level Low, time 5 day, […]
Your answer is read as CELLS/uL, so omit the unit and give the number.

// known answers, use as guide
Molecule	Scale Unit	ABSOLUTE MONOCYTE
CC(C)CC(N(C)C)C1(c2ccc(Cl)cc2)CCC1 (centres undefined)	CELLS/uL	411.33
CCOC(=O)C1=C(C)NC(C)=C(C(=O)OC)C1c1cccc([N+](=O)[O-])c1 (centres undefined)	CELLS/uL	116
COCCOC(=O)C1=C(C)NC(C)=C(C(=O)OC(C)C)C1c1cccc([N+](=O)[O-])c1 (centres undefined)	CELLS/uL	96.33

// moving on: another record for ABSOLUTE MONOCYTE
Lab book: ABSOLUTE MONOCYTE of `COc1ccc2cc([C@H](C)C(=O)O)ccc2c1` noted as 680

###

organism: Rattus norvegicus; experiment: DrugMatrix - Regimen: Daily Repeat; type: toxicity, organism-based, Sprague-Dawley; design: regimen Daily Repeat, gender Male, age 6-8 weeks; settings: in vivo, po, 0 mg/kg, 72 h, tissue Blood, route oral GAVAGE, dose level Control, time 3 day, vehicle 100 % WATER
Property: HEMOGLOBIN (G/DL)
Your answer is read as G/DL, so omit the unit and give the number.

// known answers, use as guide
Compound	Scale Unit	HEMOGLOBIN
CC(C)(C)c1ccc(C(=O)CCCN2CCC(OC(c3ccccc3)c3ccccc3)CC2)cc1 [EBASTINE]	G/DL	13.43
Cc1ncc([N+](=O)[O-])n1CCO [METRONIDAZOLE]	G/DL	13.83
Nc1ccn([C@@H]2CS[C@H](CO)O2)c(=O)n1 [LAMIVUDINE]	G/DL	13.33
CC(C)NCC(O)COc1cccc2ccccc12 (stereo not given) [PROPRANOLOL]	G/DL	12.55
COc1cc2ncnc(Nc3ccc(F)c(Cl)c3)c2cc1OCCCN1CCOCC1 [GEFITINIB]	G/DL	13.07
CC(C)C[C@H](NC(=O)[C@@H](O)[C@H](N)Cc1ccccc1)C(=O)O [UBENIMEX]	G/DL	13.97
COC(=O)C1=C(C)NC(C)=C(C(=O)OCC(C)C)C1c1ccccc1[N+](=O)[O-] (stereo not given) [NISOLDIPINE]	G/DL	12.88
ClC(Cl)Cl [CHLOROFORM]	G/DL	13.83
C[N+](C)(C)CCO.[Cl-] [CHOLINE CHLORIDE]	G/DL	12.98

Lab book: HEMOGLOBIN of C[C@@H]1C[C@@H]([C@H](O)CC2CC(=O)NC(=O)C2)C(=O)[C@@H](C)C1 [CYCLOHEXIMIDE] noted as 13.87
